TGT: rat GPR14 (U-II receptor) (Rattus norvegicus)
Construct: expressed in transfected cells
Sequence (P49684 1-386): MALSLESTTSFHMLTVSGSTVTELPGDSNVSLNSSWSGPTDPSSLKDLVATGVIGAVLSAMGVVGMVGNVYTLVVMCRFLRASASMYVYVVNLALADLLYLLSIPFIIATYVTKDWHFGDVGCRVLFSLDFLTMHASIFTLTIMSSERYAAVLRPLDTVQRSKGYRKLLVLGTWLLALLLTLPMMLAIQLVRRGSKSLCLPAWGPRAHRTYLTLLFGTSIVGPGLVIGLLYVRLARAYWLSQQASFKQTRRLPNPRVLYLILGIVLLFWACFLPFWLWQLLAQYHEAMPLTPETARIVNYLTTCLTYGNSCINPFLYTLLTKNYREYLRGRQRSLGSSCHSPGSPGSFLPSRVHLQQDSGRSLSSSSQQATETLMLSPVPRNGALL
TEST: Rat UII Calcium Mobilization FLIPR Assay
Type: cell-based
CONDITION_SET: average value for the compound tested; read-out: Rat UII FLIPR Average IC50
pIC50: −log10 of the molar value.
Mark true (1) for reported pIC50 of 7 or greater; mark false (0) for anything smaller.

Answered examples (3):
- SMILES_INPUT: "COc1ccc([C@@H](CCCNC(=O)c2cnn(C)c2Cl)N2C(=O)c3cccc(N4CCN([C@H](C)c5ccccc5)CC4)c3C2=O)cc1OC"
  TGT: "rat GPR14 (U-II receptor) (Rattus norvegicus)"
  CLASS: "true (1)"
- SMILES_INPUT: "COc1ccc([C@@H](CCCNS(=O)(=O)c2cccs2)N2C(=O)c3cccc(N4CCN(C5CCCC5)CC4)c3C2=O)cc1OC"
  TGT: "rat GPR14 (U-II receptor) (Rattus norvegicus)"
  CLASS: "true (1)"
- SMILES_INPUT: "C=CCN1CCN(c2cccc3c2C(=O)N([C@H](CCCNS(=O)(=O)c2cccs2)c2ccc(OC)c(OC)c2)C3=O)CC1"
  TGT: "rat GPR14 (U-II receptor) (Rattus norvegicus)"
  CLASS: "true (1)"

Entry `COc1ccc([C@@H](CCCNC(=O)c2cccnc2)N2C(=O)c3cccc(N4CCN([C@H](C)c5ccccc5)CC4)c3C2=O)cc1OC` : is its pIC50 no less than 7?
true (1)

Entry `COc1ccc([C@@H](CCCNC(=O)c2cccn2C)N2C(=O)c3cccc(N4CCN([C@H](C)c5ccccc5)CC4)c3C2=O)cc1OC` : is its pIC50 no less than 7?
true (1)

Entry `COc1ccc([C@@H](CCCNS(=O)(=O)c2c(C)n[nH]c2C)N2C(=O)c3cccc(N4CCN([C@H](C)c5ccccc5)CC4)c3C2=O)cc1OC` : is its pIC50 no less than 7?
true (1)

Entry `COc1ccc([C@@H](CCCNC(=O)C(F)(F)F)N2C(=O)c3cccc(N4CCN([C@H](C)c5ccccc5)CC4)c3C2=O)cc1OC` : is its pIC50 no less than 7?
true (1)

Entry `COc1ccc([C@@H](CCCNS(=O)(=O)c2cnc(C)n2C)N2C(=O)c3cccc(N4CCN([C@H](C)c5ccccc5)CC4)c3C2=O)cc1OC` : is its pIC50 no less than 7?
true (1)

Entry `COc1ccc([C@@H](CCCNS(=O)(=O)c2sc3ccc(F)cc3c2C)N2C(=O)c3cccc(N4CCN([C@H](C)c5ccccc5)CC4)c3C2=O)cc1OC` : is its pIC50 no less than 7?
false (0)

Entry `C/C=C(\C)CN1CCN(c2cccc3c2C(=O)N(Cc2ccc(OC)c(OC)c2)C3=O)CC1` : is its pIC50 no less than 7?
false (0)

----------
TGT: Human UII receptor, 6D9 human rhabdomyosarcoma cells (Homo sapiens)
Construct: 6D9: isolated by dilution subcloning of RMS13 cells, ATCC® Number: CRL-2061
Sequence (Q9UKP6 whole entry): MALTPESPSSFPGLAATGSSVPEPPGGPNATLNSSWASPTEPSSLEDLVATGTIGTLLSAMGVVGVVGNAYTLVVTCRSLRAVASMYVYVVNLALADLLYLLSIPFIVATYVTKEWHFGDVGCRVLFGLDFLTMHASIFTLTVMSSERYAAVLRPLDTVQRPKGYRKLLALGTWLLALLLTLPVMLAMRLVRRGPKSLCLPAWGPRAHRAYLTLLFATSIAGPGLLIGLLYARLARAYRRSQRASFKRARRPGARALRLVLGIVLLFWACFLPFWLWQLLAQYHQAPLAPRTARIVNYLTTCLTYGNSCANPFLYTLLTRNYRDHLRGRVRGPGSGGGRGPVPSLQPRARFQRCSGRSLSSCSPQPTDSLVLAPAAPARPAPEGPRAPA
TEST: Human UII Calcium Mobilization Assay
CONDITION_SET: average value, FLIPR TETRA, read-out: Human UII Ca^+ Mobilization Average IC50
# strict inequality: IC50 < 800 nM yields true (1), everything else yields false (0)

- MOLECULE: "CCN1CCN(c2cccc3c2C(=O)N(C(CC2CCN(S(=O)(=O)O)CC2)c2ccc(OC)c(OC)c2)C3=O)CC1 (stereo not shown)"
  TGT: "Human UII receptor, 6D9 human rhabdomyosarcoma cells (Homo sapiens)"
  CLASS: "true (1)"
- MOLECULE: "CCN1CCN(c2cccc3c2C(=O)N([C@H](CCCNS(=O)(=O)c2cccs2)c2ccc(OC)c(OC)c2)C3=O)CC1"
  TGT: "Human UII receptor, 6D9 human rhabdomyosarcoma cells (Homo sapiens)"
  CLASS: "true (1)"

Please state whether IC50 is below 800 nM for `COCC(=O)NCCC[C@H](c1ccc(OC)c(OC)c1)N1C(=O)c2cccc(N3CCN([C@H](C)c4ccccc4)CC3)c2C1=O`
true (1)

Please state whether IC50 is below 800 nM for `COc1ccc([C@@H](CCCNC(=O)C2CCCC2)N2C(=O)c3cccc(N4CCN([C@H](C)c5ccccc5)CC4)c3C2=O)cc1OC`
false (0)

Please state whether IC50 is below 800 nM for `COc1ccc([C@@H](CCCNc2ncccn2)N2C(=O)c3cccc(N4CCN([C@H](C)c5ccccc5)CC4)c3C2=O)cc1OC`
true (1)

Please state whether IC50 is below 800 nM for `COc1ccc([C@@H](CCCNC(=O)c2cnn(C)c2Cl)N2C(=O)c3cccc(N4CCN([C@H](C)c5ccccc5)CC4)c3C2=O)cc1OC`
false (0)

Please state whether IC50 is below 800 nM for `CCCC(=O)NCCC[C@H](c1ccc(OC)c(OC)c1)N1C(=O)c2cccc(N3CCN([C@H](C)c4ccccc4)CC3)c2C1=O`
false (0)

----------
Recorded measurements of inhibition at 50 µM, one per entry
TGT: rat GPR14 (U-II receptor) (Rattus norvegicus, UniProt P49684)
Construct: expressed in transfected cells
TEST: Rat UII Calcium Mobilization FLIPR Assay
Type: cell-based
CONDITION_SET: CHO, 5 min, 50 μM compound; agonist-induced Ca2+ mobilization (FLIPR), CHO cells with rat UII receptor; read-out: % I @ 50
Write the number in % without appending the unit.

Known results for compounds:
- COMPOUND: "COc1ccc(CN2C(=O)c3cccc(N4CCN(Cc5ccc(F)cc5F)CC4)c3C2=O)cc1OC"
  inhibition at 50 µM (%): 100
- COMPOUND: "COc1ccc(CN2C(=O)c3cccc(C4=CCN(Cc5ccccc5)CC4)c3C2=O)cc1OC"
  inhibition at 50 µM (%): 100
- COMPOUND: "COc1ccc(C(CCCCNC(=O)OC(C)(C)C)N2C(=O)c3cccc(N4CCN([C@H](C)c5ccccc5)CC4)c3C2=O)cc1OC (some centres unmarked)"
  inhibition at 50 µM (%): 52
- COMPOUND: "O=C1c2cccc(N3CCN(Cc4ccccc4)CC3)c2C(=O)N1CCCn1ccnc1"
  inhibition at 50 µM (%): 78
- COMPOUND: "COc1ccc(C(CCCN)N2C(=O)c3cccc(N4CCN([C@H](C)c5ccccc5)CC4)c3C2=O)cc1OC (some centres unmarked)"
  inhibition at 50 µM (%): 97
- COMPOUND: "COc1ccc(C(C)N2C(=O)c3cccc(N4CCN([C@H](C)c5ccccc5)CC4)c3C2=O)cc1OC (some centres unmarked)"
  inhibition at 50 µM (%): 103
- COMPOUND: "COc1ccc(CN2C(=O)c3cccc(N4CCN(Cc5ccc(C)cc5)CC4)c3C2=O)cc1OC"
  inhibition at 50 µM (%): 87
- COMPOUND: "COc1ccc(CN2C(=O)c3cccc(N4CCN(C(C)(C)c5ccccc5)CC4)c3C2=O)cc1OC"
  inhibition at 50 µM (%): 101
- COMPOUND: "COc1ccc(CCN2C(=O)c3cccc(N4CC5CCC(C4)N5Cc4ccccc4)c3C2=O)cc1OC"
  inhibition at 50 µM (%): 100
- COMPOUND: "CCC(c1ccccc1)N1CCN(c2cccc3c2C(=O)N(Cc2ccc(OC)c(OC)c2)C3=O)CC1 (centres unmarked)"
  inhibition at 50 µM (%): 99

Entry COc1cc2c(cc1OC)C(N1C(=O)c3cccc(N4CCN(Cc5ccccc5)CC4)c3C1=O)CC2 (centres unmarked) — recorded inhibition at 50 µM = 101

----------
Recorded measurements of IC50, one per entry
TGT: rat GPR14 (U-II receptor) (Rattus norvegicus, UniProt P49684)
Construct: expressed in transfected cells
TEST: Rat UII Calcium Mobilization FLIPR Assay
Assay type: cell-based
CONDITION_SET: average value for the compound tested; read-out: Rat UII FLIPR Average IC50
Write the number in nM without appending the unit.

- COMPOUND: "COc1ccc(C(CCCNS(=O)(=O)c2c(C)nn(C)c2Cl)N2C(=O)c3cccc(N4CCN([C@H](C)c5ccccc5)CC4)c3C2=O)cc1OC (stereo partly drawn)"
  SCALE_UNIT: "nM"
  IC50: 30
- COMPOUND: "COc1ccc(CC(c2ccc(OC)c(OC)c2)N2C(=O)c3cccc(N4CCN([C@H](C)c5ccccc5)CC4)c3C2=O)cc1OC (stereo partly drawn)"
  SCALE_UNIT: "nM"
  IC50: 250

Shift focus to the following entry.
Entry `COc1ccc([C@@H](CCCNS(=O)(=O)c2cccs2)N2C(=O)c3cccc(N4CCN(Cc5cccnc5)CC4)c3C2=O)cc1OC` — recorded IC50 = 11
